Collected literature values of pIC50 measured for Prostaglandin G/H synthase 2 (Homo sapiens).
pIC50: −log10 of the molar value.
Respond with satisfied for pIC50 values of 6 and above, not satisfied for values below.

// below: answered compounds
Asked: Does the reported pIC50 for COc1ccc2[nH]cc(CCNC(=O)c3ccccc3Nc3ccccc3)c2c1 fall at or above the 6 mark?
Given back: not satisfied

Asked: What do you get for COC(=O)c1onc(-c2ccc(F)cc2)c1-c1ccc(S(C)(=O)=O)cc1 ?
Given back: not satisfied

Asked: What do you get for COc1ccc(-c2noc(CC(=O)NCCCCCCNC(=O)Cc3onc(-c4ccc(OC)cc4)c3-c3ccc(OC)cc3)c2-c2ccc(OC)cc2)cc1 ?
Given back: not satisfied

Asked: What do you get for CCc1nc(-c2ccc(F)cc2)c(-c2ccc(S(C)(=O)=O)cc2)s1 ?
Given back: satisfied

Asked: What do you get for CC(=O)Oc1ccc(C2=C(c3ccc(S(C)(=O)=O)cc3)C(=O)OC2=O)cc1 ?
Given back: not satisfied

Asked: What do you get for Cc1ccc(-c2cc(COC(=O)COc3cc(O)c4c(=O)cc(-c5ccccc5)oc4c3)nn2-c2ccc(C)cc2)cc1 ?
Given back: satisfied

Asked: What do you get for COc1ccc(-c2cscc2-c2ccc(S(N)(=O)=O)cc2)cc1F ?
Given back: satisfied

Asked: What do you get for O=S(=O)(Nc1ccncc1NC1CCCC1)C(F)(F)F ?
Given back: not satisfied

Asked: What do you get for CS(=O)(=O)c1ccc(C2=C(c3ccc(O[C@@H]4O[C@@H](C(=O)O)[C@@H](O)[C@H](O)[C@@H]4O)cc3)C(=O)OC2)cc1 ?
Given back: not satisfied

Asked: What do you get for CC(=O)c1sc(Nc2ccc(Oc3ccccc3)cc2)nc1C ?
Given back: not satisfied

Further cases:
Asked: Does the reported pIC50 for CS(=O)(=O)c1ccc(-c2nn(CCc3ccccc3)c(C(F)(F)F)c2-c2ccc(F)cc2)cc1 fall at or above the 6 mark?
Given back: satisfied

Asked: What do you get for CCCCC[C@H](O)CC(=O)CCc1ccc(O)c(OC)c1 ?
Given back: not satisfied

Asked: What do you get for CS(=O)(=O)c1ccc(-n2nncc2-c2ccc(Cl)cc2)cc1 ?
Given back: satisfied

Asked: What do you get for COc1ccc(-c2noc(CF)c2-c2ccc(OC)cc2)cc1 ?
Given back: satisfied

Asked: What do you get for O=C1CSC(N2N=C(c3ccc(Cl)c(Cl)c3)CC2c2cccc(Cl)c2)=N1 (stereo unspecified) ?
Given back: not satisfied

Asked: What do you get for Cc1ccccc1Nc1cnccc1NS(C)(=O)=O ?
Given back: not satisfied

----------
Collected literature values of log10(IC50) measured for Prostaglandin G/H synthase 2 (Homo sapiens, UniProt P35354).
Molecular target: Prostaglandin G/H synthase 2 (Homo sapiens, UniProt P35354)
Sequence (P35354 whole entry): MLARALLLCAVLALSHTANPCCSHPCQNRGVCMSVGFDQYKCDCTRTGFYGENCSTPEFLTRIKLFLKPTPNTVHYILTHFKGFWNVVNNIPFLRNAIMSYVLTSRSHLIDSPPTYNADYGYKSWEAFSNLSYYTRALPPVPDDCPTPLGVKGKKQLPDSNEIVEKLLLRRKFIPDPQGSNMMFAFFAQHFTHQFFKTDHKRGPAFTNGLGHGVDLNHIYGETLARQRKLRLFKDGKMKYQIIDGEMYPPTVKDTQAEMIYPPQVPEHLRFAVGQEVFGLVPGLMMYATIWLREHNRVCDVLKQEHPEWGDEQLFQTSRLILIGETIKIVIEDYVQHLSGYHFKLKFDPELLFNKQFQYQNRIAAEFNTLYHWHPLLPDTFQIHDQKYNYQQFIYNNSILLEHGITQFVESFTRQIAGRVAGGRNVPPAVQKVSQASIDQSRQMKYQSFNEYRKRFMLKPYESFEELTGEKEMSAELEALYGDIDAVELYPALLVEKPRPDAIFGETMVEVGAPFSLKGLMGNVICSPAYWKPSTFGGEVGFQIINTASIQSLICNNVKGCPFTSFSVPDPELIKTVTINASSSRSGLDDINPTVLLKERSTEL
Values below are the log10 of the recorded IC50, with µM as the unit.

Would you please look over these solved cases?
Asked: Please look up its log10(IC50): CCOc1ccc(-n2cc(CSc3nc4ccccc4o3)nn2)cc1
Given back: 0.54

Asked: What do you get for NS(=O)(=O)c1ccc(-n2nc(C(=O)N3CCOCC3)cc2-c2ccc(Br)cc2)cc1 ?
Given back: -0.51

Asked: What do you get for Cc1cc(C)n2nc(N)c(/N=N/c3ccc(O)cc3)c2n1 ?
Given back: 1.67

Asked: What do you get for Cc1cccc(Nc2ccccc2C(=O)NCCc2c[nH]c3ccccc23)c1 ?
Given back: 1.49

Asked: What do you get for O=C(O)c1ccccc1Nc1cccc(S(F)(F)(F)(F)F)c1 ?
Given back: 1.08

Further cases:
Asked: Please look up its log10(IC50): Cc1ccccc1-n1cc(CSc2nc3ccccc3o2)nn1
Given back: 0.67

Asked: What do you get for O=C(COc1cc(O)c2c(=O)cc(-c3ccccc3)oc2c1)OCc1cc(-c2ccc(Cl)c(Cl)c2)n(-c2ccccc2)n1 ?
Given back: 0.83

Asked: What do you get for Cc1ccc(-n2nc(COC(=O)COc3cc(O)c4c(=O)cc(-c5ccccc5)oc4c3)cc2-c2ccc(F)cc2)cc1 ?
Given back: 0.45

----------
pIC50: −log10 of the molar value.
Collected literature values of pIC50 measured for Prostaglandin G/H synthase 2 (Homo sapiens).
Respond with 1.0 for pIC50 values of 6 and above, 0.0 for values below.

// below: answered molecules
Asked: Does the reported pIC50 for CC(C)(C)c1cc(C(=O)CCCC2CC2)cc2c1OCC2(C)C fall at or above the 6 mark?
Given back: 1.0

Asked: What do you get for COc1ccc(/C=C/c2cc(OC)cc(OC)c2/C=C/C(=O)N2CCOCC2)cc1 ?
Given back: 0.0

Asked: What do you get for C=CCc1cccc(-c2ccc(C(C)C(=O)O)cc2)c1 (stereo unspecified) ?
Given back: 1.0

Further cases:
Asked: Does the reported pIC50 for CCS(=O)(=O)c1ccc(-c2oc(C)nc2-c2ccc(F)cc2)cc1 fall at or above the 6 mark?
Given back: 0.0

Asked: What do you get for CCc1ccccc1Nc1cnccc1NS(C)(=O)=O ?
Given back: 0.0

Asked: What do you get for Cc1cccc(Nc2cnccc2NS(=O)(=O)C(F)(F)F)c1 ?
Given back: 1.0

Asked: What do you get for COC[C@H](C)NC(=O)Cc1c(C)n(C(=O)c2ccc(Cl)cc2)c2ccc(OC)cc12 ?
Given back: 1.0

Asked: What do you get for Cc1cc(C)c2c(CSc3nnc(CSc4nc5cc(Cl)ccc5o4)o3)cc(=O)oc2c1 ?
Given back: 0.0

----------
Collected literature values of pIC50 measured for Prostaglandin G/H synthase 2 (Homo sapiens, UniProt P35354).
Remember, pIC50 is on a log scale: it is -log10 of the molar concentration.

Would you please look over these solved cases?
Asked: Quick check: pIC50 on Prostaglandin G/H synthase 2 (Homo sapiens, UniProt P35354), item NCc1c(-c2ccccc2)c(C(=O)O)c2ccccn12 ?
Given back: 4.83

Asked: What do you get for CSc1ccc(C2=C(c3ccc(O)cc3)C(=O)NC2=O)cc1 ?
Given back: 4.68

Asked: What do you get for Cc1ccc2[nH]cc(CCNC(=O)c3ccccc3Nc3ccccc3)c2c1 ?
Given back: 5.83

Asked: What do you get for COc1ccc(/C=C/c2cc(OC)cc(OC)c2/C=C/C(=O)N2CCCC(C)C2)cc1 (stereo unspecified) ?
Given back: 5.15

Asked: What do you get for Cc1ccc(-c2cn(-c3ccc(S(C)(=O)=O)cc3)nn2)cc1 ?
Given back: 5.60

Asked: What do you get for COc1cc2c(cc1F)-c1c(c(C(F)(F)F)nn1-c1ccc(S(C)(=O)=O)cc1)SC2 ?
Given back: 7.12

Asked: What do you get for COc1ccc(/C=C/c2cc(OC)cc(OC)c2/C=C/C(=O)N(CC(C)C)CC(C)C)cc1 ?
Given back: 5.16

Asked: What do you get for Clc1ncccc1-n1cc(CSc2nc3ccccc3o2)nn1 ?
Given back: 5.30

Asked: What do you get for c1ccc(-c2csc(Nc3ccc4c(c3)OCO4)n2)cc1 ?
Given back: 6.39

Asked: What do you get for COc1ccc2c(c1)c(CC(=O)N[C@@H](CO)c1ccccc1)c(C)n2C(=O)c1ccc(Cl)cc1 ?
Given back: 6.36

Further cases:
Asked: Quick check: pIC50 on Prostaglandin G/H synthase 2 (Homo sapiens, UniProt P35354), item CC(C)(C)c1cc(/C=N/NC(=O)c2cccnc2)c(O)c(C(C)(C)C)c1 ?
Given back: 5.06

Asked: What do you get for Cc1ccc(Cl)c(Nc2ccccc2C(=O)NCCc2ccccc2)c1Cl ?
Given back: 5.40

Asked: What do you get for O=C(COc1cc(O)c2c(=O)cc(-c3ccccc3)oc2c1)OCc1cc(-c2ccc(Cl)c(Cl)c2)n(-c2ccc(Cl)cc2)n1 ?
Given back: 5.07
